measured_target: DLK kinase (N-terminally GST-tagged DLK, catalytic domain amino acid 1-520) (Homo sapiens (Human), UniProt Q12852)
Sequence (Q12852 1-520): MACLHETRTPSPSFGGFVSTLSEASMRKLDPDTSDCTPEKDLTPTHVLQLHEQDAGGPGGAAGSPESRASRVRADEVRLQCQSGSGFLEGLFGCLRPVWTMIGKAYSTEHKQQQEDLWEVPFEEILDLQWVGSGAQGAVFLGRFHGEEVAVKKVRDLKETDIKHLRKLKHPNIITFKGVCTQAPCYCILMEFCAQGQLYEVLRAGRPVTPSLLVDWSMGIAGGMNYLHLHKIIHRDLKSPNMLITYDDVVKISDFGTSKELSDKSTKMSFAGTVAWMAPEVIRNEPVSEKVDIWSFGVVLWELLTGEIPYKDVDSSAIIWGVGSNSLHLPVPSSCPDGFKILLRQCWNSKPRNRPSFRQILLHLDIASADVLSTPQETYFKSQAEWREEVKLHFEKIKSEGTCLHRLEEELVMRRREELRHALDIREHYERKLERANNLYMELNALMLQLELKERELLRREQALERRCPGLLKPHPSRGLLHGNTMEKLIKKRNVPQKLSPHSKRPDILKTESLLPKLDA
test: DLK TR-FRET assay
test_context: 30 μM ATP, MKK4 K131M substrate, read-out: DLK HTRF (Ki)
property_name: pKi
// field semantics: pKi = negative decimal log of concentration (mol/L)

1. Cc1ccnc(Nc2cc(C3CCN(C(=O)c4ccccc4)CC3)nc(N3CCCC3)n2)c1 [Example 25] | 7.30
2. Cc1nc(Nc2cc(C(F)(F)F)ccn2)cc(C2CCCN(C(=O)c3ccc(F)cc3)C2)n1 (centres unmarked) [Example 22] | 7.36
3. C[C@@H]1CCCN1c1nc(Nc2cc(C(F)(F)F)ccn2)cc(C2(C#N)CCOCC2)n1 [Example 209] | 7.11

Record request: pKi value, item O=C(C(F)F)N1CCCC(c2cc(Nc3cc(C(F)(F)F)ccn3)nc(N3CCC(F)(F)C3)n2)C1 (centres unmarked) [Example 178]
7.57

Record request: pKi value, item CC(=O)N1CCCC(c2cc(Nc3cc(C)ccn3)nc(N3CCC3)n2)C1 (centres unmarked) [Example 87]
6.58

Record request: pKi value, item N#CCC(=O)N1CCCC(c2cc(Nc3cc(C(F)(F)F)ccn3)nc(C3CC3)n2)C1 (centres unmarked) [Example 173]
7.43

Record request: pKi value, item C[C@@H]1CCCN1c1nc(Nc2cc(C(F)(F)F)ccn2)cc(C2CCN(S(C)(=O)=O)CC2)n1 [Example 330]
7.50

Record request: pKi value, item C[C@@H]1CC[C@@H](C)N1c1nc(Nc2cc(C(F)(F)F)ccn2)cc(C2CCNCC2)n1 [Example 143]
7.98

###

measured_target: DLK kinase (N-terminally GST-tagged DLK, catalytic domain amino acid 1-520) (Homo sapiens (Human))
test: DLK TR-FRET assay
Type: biochemical
test_context: 30 μM ATP, MKK4 K131M substrate, read-out: DLK HTRF (Ki)
Each entry below carries its reported Ki.
Just the number please, in nM, no unit attached.

Please review the following examples before continuing.
1) CC(=O)N1CCC(c2cc(Nc3cc(C)ccn3)nc(N3CCCCC3)n2)C1 (stereo not shown) | 104
2) FC(F)(F)c1ccnc(Nc2cc(C3CCOCC3)nc(N3CCCOCC3)n2)c1 | 82.7
3) CC(=O)N1CCC(c2cc(Nc3cc(C(F)(F)F)ccn3)nc(N3CCC[C@H]3C)n2)CC1 | 2.2

Record request: Ki value, item C[C@@H]1CCCN1c1nc(Nc2cc(C(F)(F)F)ccn2)cc(-c2ccc(=O)n(C)c2)n1
18.4

Record request: Ki value, item FC1(F)CCN(c2nc(Nc3cc(-c4cccs4)ccn3)cc(C3CCNCC3)n2)C1
3.2

Record request: Ki value, item O=C(C(F)F)N1CCC(c2cc(Nc3cc(C(F)(F)F)ccn3)nc(N3CC4CCC(C3)O4)n2)CC1
104

Record request: Ki value, item N#CC1(c2cc(Nc3cc(C(F)(F)F)ccn3)nc(N3CCC(F)(F)C3)n2)CCNCC1
11.7

###

Each entry below carries its reported pKi.
measured_target: DLK kinase (N-terminally GST-tagged DLK, catalytic domain amino acid 1-520) (Homo sapiens (Human))
test: DLK TR-FRET assay
test_context: 30 μM ATP, MKK4 K131M substrate, read-out: DLK HTRF (Ki)
// field semantics: pKi = negative decimal log of concentration (mol/L)

Please review the following examples before continuing.
1) O=C(C1CN(c2nc(Nc3cc(C(F)(F)F)ccn3)cc(C3CCOCC3)n2)C1)N1CCOCC1 | 6.46
2) CN1CCC(c2cc(Nc3cc(C(F)(F)F)ccn3)nc(N3CC4CC3CO4)n2)C1 (stereo not drawn) | 7.33

Record request: pKi value, item Cc1ccc(Nc2cc(C3CCCN(C(=O)c4ccccc4)C3)nc(C)n2)nc1 (stereo not drawn)
6.40

###

measured_target: DLK kinase (N-terminally GST-tagged DLK, catalytic domain amino acid 1-520) (Homo sapiens (Human), UniProt Q12852)
test: DLK TR-FRET assay
test_context: 30 μM ATP, MKK4 K131M substrate, read-out: DLK HTRF (Ki)
property_name: pKi
// field semantics: pKi = negative decimal log of concentration (mol/L)

1. Cc1nc(Nc2ccc(C(F)(F)F)cn2)cc(C2CCCN(C(=O)c3ccccc3)C2)n1 (centres unmarked) | 6.16
2. CC(C)c1nc(Nc2cc(C(F)(F)F)ccn2)cc(C2CN(C3COC3)C2)n1 | 6.55
3. CC(=O)N1CCC(c2cc(Nc3cc(C(F)(F)F)ccn3)nc(N3CCC(C(F)(F)F)C3)n2)CC1 (centres unmarked) | 7.36
4. CC(=O)N1CC(c2cc(Nc3cc(C(F)(F)F)ccn3)nc(N3CCC[C@H]3C)n2)C1 | 7.95
5. CN(CCO)c1nc(Nc2cc(C(F)(F)F)ccn2)cc(C2CCNC2)n1 (centres unmarked) | 7.90
6. CN1CCC(c2cc(Nc3cc(C(F)(F)F)ccn3)nc(N3CC(C#N)C3)n2)C1 (centres unmarked) | 6.83
7. FC1(F)CCN(c2nc(Nc3cc(Cl)ccn3)cc(C3CCNCC3)n2)C1 | 8.07
8. COc1ccnc(Nc2cc(C3CCNCC3)nc(N3CCCC3C)n2)c1 (centres unmarked) | 7.82

Record request: pKi value, item CCC1CN(c2nc(Nc3cc(C(F)(F)F)ccn3)cc(C3CCN(C)C3)n2)CCO1 (centres unmarked)
7.65

Record request: pKi value, item Cc1ccnc(Nc2cc(C3CCCN(Cc4ccc5nccn5c4)C3)nc(C)n2)c1 (centres unmarked)
6.51

Record request: pKi value, item Cn1nccc1-c1nc(Nc2cc(C(F)(F)F)ccn2)cc(C2CCN(CC3CCOCC3)C2)n1 (centres unmarked)
8.06

###

measured_target: DLK kinase (N-terminally GST-tagged DLK, catalytic domain amino acid 1-520) (Homo sapiens (Human), UniProt Q12852)
test: DLK TR-FRET assay
test_context: 30 μM ATP, MKK4 K131M substrate, read-out: DLK HTRF (Ki)
Mark satisfied for Ki under 50 nM, not satisfied if at or over.

Answered cases to consult:
1) CC(C)Cc1nc(Nc2cc(C(F)(F)F)ccn2)cc(C2CCCN(C(=O)C(F)F)C2)n1 (stereo not drawn) | not satisfied
2) CCOc1ccnc(Nc2cc(C3CCCN(C(=O)c4ccccc4)C3)nc(C)n2)c1 (stereo not drawn) | not satisfied

Ki strictly < 50 nM for this compound? CC(=O)N1CC(c2cc(Nc3cc(C(F)(F)F)ccn3)nc(C3CC3)n2)C1
not satisfied

Ki strictly < 50 nM for this compound? O=C(C1CC1)N1CCC(c2cc(Nc3cc(C(F)(F)F)ccn3)nc(N3CCC(F)(F)C3)n2)C1 (stereo not drawn)
satisfied

Ki strictly < 50 nM for this compound? C[C@@H]1CCCN1c1nc(Nc2cc(C(F)(F)F)ccn2)cc(C2CCN(C)CC2)n1
satisfied

Ki strictly < 50 nM for this compound? N#CC1(c2cc(Nc3cc(C(F)(F)F)ccn3)nc(Nc3cc(C(F)(F)F)ccn3)n2)CCOCC1
not satisfied

Ki strictly < 50 nM for this compound? FC(F)(F)c1ccnc(Nc2cc(C3CCOCC3)nc(N3CC4(COC4)C3)n2)c1
not satisfied

Ki strictly < 50 nM for this compound? FC(F)(F)c1ccnc(Nc2cc(C3CCCN(C4COC4)C3)nc(C3CCCC3)n2)c1 (stereo not drawn)
satisfied

Ki strictly < 50 nM for this compound? C[C@@H]1CCCN1c1nc(Nc2cc(C3CC3)ccn2)cc(C2CCNCC2)n1
satisfied

Ki strictly < 50 nM for this compound? CC1CC1C(=O)N1CCC(c2cc(Nc3cc(C(F)(F)F)ccn3)nc(N3CCC(F)(F)C3)n2)C1 (stereo not drawn)
satisfied

Ki strictly < 50 nM for this compound? FC(F)(F)c1ccnc(Nc2cc(C3CCOCC3)nc(N3CCn4ccnc4C3)n2)c1
not satisfied

Ki strictly < 50 nM for this compound? FC1(F)CCN(c2nc(Nc3cc(Cl)ccn3)cc(C3CCN(C4COC4)CC3)n2)C1
satisfied

Ki strictly < 50 nM for this compound? FC(F)(F)c1ccnc(Nc2cc(C3CCOCC3)nc(N3CCc4nc[nH]c4C3)n2)c1
satisfied

Ki strictly < 50 nM for this compound? CC1CCCN1c1nc(Nc2cc(C(F)(F)F)ccn2)cc(C2CCNC(=O)C2)n1 (stereo not drawn)
satisfied

###

measured_target: DLK kinase (N-terminally GST-tagged DLK, catalytic domain amino acid 1-520) (Homo sapiens (Human), UniProt Q12852)
test: DLK TR-FRET assay
test_context: 30 μM ATP, MKK4 K131M substrate, read-out: DLK HTRF (Ki)
pKi: −log10 of the molar value.
Outcome: rule met for pKi of at least 8; rule not met for anything lower.

1) CC(=O)N1CCC(c2cc(Nc3cc(C)ccn3)nc(N3CCCC3)n2)C1 (stereo not drawn) | rule not met

API: above_or_equal(metric=pKi, cutoff=8) for item Cn1cc(-c2nc(Nc3cc(C(F)(F)F)ccn3)cc(C3CCN(CC4CCOCC4)C3)n2)cn1 (stereo not drawn)
rule met

API: above_or_equal(metric=pKi, cutoff=8) for item CC1CCCN1c1nc(Nc2cc(C(F)(F)F)ccn2)cc(C2CCN(C(=O)Cn3ccnc3)C2)n1 (stereo not drawn) [Example 402]
rule met

API: above_or_equal(metric=pKi, cutoff=8) for item CC(C)c1nc(Nc2cc(C(F)(F)F)ccn2)cc(C2CCNC(=O)C2)n1 (stereo not drawn)
rule not met

API: above_or_equal(metric=pKi, cutoff=8) for item FC(F)(F)c1ccnc(Nc2cc(C3CCOCC3)nc(N3CC4CCC(C3)O4)n2)c1
rule not met

API: above_or_equal(metric=pKi, cutoff=8) for item Cc1ccnc(Nc2cc(C3CCCN(Cc4cn5ccccc5n4)C3)nc(C)n2)c1 (stereo not drawn)
rule not met

API: above_or_equal(metric=pKi, cutoff=8) for item COc1cc(C)ccc1C(=O)N1CCCC(c2cc(Nc3cc(C)ccn3)nc(N3CCCC3C)n2)C1 (stereo not drawn)
rule met

API: above_or_equal(metric=pKi, cutoff=8) for item CN1CCCC(c2cc(Nc3cc(C(F)(F)F)ccn3)nc(N3CC4CCC(C3)O4)n2)C1 (stereo not drawn)
rule not met

Origin of values: patent US9868720B2
